System: HCT116 3-BP survivors (MCT-1-negative) and parental cells
test.details: Selection of 3-BP survivors from HCT116 cells and MTT chemosensitivity
Format: cell-based, human
particulars: Homo sapiens, HCT-116, read-out: IC50 (MTT)

>  <compound>
O=C(O)C(=O)CBr [3-BP, 3-bromopyruvate]

>  <IC50>
> 100 µM

$$$$

----------
Test system: HCT116 cells
test.details: Colony formation assay in HCT116 cells
Format: cell-based, human
particulars: Homo sapiens, HCT-116; HCT116, 48 hours drug then 10-14 days; read-out: half-maximal effect, CFA
Each item that follows carries a reported IC50.
quantity: IC50

>  <molecule>
C=C(C)[C@@H]1CC=C(COC(=O)C(=O)CBr)CC1 [NEO218]

>  <reported.result>
~3000 nM

$$$$
>  <molecule>
O=C(O)C(=O)CBr [3-BP, 3-bromopyruvate]

>  <reported.result>
~3000 nM

$$$$
